target: JAK3 (Homo sapiens (Human), UniProt P52333); assay: JAK3 enzyme assay (Assay Example^b 1); conditions: IC50 (μM) JAK3, Table^b 80; ATP 100 μM
Sequence (P52333 whole entry): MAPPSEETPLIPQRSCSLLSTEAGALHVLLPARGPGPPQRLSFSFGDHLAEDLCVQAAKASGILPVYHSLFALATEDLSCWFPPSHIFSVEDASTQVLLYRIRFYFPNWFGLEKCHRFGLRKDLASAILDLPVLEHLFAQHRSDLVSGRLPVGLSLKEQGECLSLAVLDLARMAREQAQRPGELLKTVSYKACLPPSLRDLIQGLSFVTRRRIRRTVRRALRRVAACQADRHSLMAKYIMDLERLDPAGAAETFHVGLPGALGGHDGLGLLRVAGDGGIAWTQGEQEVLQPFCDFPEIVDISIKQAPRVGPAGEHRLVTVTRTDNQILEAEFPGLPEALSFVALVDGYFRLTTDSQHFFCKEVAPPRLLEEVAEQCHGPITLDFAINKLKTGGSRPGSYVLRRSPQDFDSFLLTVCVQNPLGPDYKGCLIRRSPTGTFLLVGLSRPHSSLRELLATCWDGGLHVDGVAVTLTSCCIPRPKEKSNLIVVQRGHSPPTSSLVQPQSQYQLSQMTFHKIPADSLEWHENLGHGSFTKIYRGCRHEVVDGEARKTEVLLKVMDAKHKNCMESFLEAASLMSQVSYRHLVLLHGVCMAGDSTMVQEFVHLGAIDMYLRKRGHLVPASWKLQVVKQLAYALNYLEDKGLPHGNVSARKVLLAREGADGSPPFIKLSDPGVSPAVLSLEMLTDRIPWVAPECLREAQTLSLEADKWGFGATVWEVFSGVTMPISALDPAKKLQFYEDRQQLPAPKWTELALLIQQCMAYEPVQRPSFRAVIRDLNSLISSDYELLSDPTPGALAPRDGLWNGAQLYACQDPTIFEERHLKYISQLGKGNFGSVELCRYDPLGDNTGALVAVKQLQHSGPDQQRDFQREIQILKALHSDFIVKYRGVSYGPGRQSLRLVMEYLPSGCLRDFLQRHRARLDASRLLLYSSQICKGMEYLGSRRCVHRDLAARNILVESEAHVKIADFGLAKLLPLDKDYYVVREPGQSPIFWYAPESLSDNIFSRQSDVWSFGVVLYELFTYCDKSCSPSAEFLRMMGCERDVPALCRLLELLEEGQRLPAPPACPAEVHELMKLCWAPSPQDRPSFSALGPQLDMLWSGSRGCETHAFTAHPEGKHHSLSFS

molecule: CO[C@H]1CC[C@H](n2ccc(=O)c3cnc4[nH]ccc4c32)CC1 [compound 70]
relation.qualifier: >
IC50 (µM): 1

molecule: C[C@@H]1CCN(C(=O)OCc2ccccc2)C[C@@H]1n1ccc(=O)c2cnc3[nH]ccc3c21 (racemic) [compound 35]
relation.qualifier: =
IC50 (µM): 0.11

molecule: N#Cc1ccc(CN2CCC(N3C(=O)NCc4cnc5[nH]ccc5c43)CC2)cc1 [compound 62]
relation.qualifier: >
IC50 (µM): 1

molecule: O=C(CC(F)(F)F)N1CCC(N2C(=O)NCc3cnc4[nH]ccc4c32)CC1 [compound 65]
relation.qualifier: =
IC50 (µM): 9.5

* * *

target: JAK1 (Homo sapiens (Human), UniProt P23458); assay: Enzyme assay (Assay Example^a 1), JAK1; assay type: biochemical; details: ATP 100 μM

molecule: Cc1nc(C2CCCCC2)c2c3cc[nH]c3ncn12
IC50 [µM]: 0.23

molecule: O=S(=O)(C[C@H]1CC[C@H](c2nnn3cnc4[nH]ccc4c23)CC1)c1ccccc1
IC50 [µM]: 0.0057

molecule: c1cc2c(ncn3nnc([C@H]4CC[C@H](CNC5CCCC5)CC4)c23)[nH]1
IC50 [µM]: 0.017

molecule: Fc1ccc([C@@H]2C[C@H]2CN[C@H]2CC[C@H](c3nnn4cnc5[nH]ccc5c34)CC2)cc1 (relative stereo) [389b]
IC50 [µM]: 0.0079

* * *

Here the recorded log10 IC50 is given for each entry.
molecular target: Tyk2 (Homo sapiens (Human), UniProt P29597); assay: Enzyme assay (Assay Example^a 1), Tyk2; format: biochemical; conditions: ATP 100 μM
Sequence (P29597 whole entry): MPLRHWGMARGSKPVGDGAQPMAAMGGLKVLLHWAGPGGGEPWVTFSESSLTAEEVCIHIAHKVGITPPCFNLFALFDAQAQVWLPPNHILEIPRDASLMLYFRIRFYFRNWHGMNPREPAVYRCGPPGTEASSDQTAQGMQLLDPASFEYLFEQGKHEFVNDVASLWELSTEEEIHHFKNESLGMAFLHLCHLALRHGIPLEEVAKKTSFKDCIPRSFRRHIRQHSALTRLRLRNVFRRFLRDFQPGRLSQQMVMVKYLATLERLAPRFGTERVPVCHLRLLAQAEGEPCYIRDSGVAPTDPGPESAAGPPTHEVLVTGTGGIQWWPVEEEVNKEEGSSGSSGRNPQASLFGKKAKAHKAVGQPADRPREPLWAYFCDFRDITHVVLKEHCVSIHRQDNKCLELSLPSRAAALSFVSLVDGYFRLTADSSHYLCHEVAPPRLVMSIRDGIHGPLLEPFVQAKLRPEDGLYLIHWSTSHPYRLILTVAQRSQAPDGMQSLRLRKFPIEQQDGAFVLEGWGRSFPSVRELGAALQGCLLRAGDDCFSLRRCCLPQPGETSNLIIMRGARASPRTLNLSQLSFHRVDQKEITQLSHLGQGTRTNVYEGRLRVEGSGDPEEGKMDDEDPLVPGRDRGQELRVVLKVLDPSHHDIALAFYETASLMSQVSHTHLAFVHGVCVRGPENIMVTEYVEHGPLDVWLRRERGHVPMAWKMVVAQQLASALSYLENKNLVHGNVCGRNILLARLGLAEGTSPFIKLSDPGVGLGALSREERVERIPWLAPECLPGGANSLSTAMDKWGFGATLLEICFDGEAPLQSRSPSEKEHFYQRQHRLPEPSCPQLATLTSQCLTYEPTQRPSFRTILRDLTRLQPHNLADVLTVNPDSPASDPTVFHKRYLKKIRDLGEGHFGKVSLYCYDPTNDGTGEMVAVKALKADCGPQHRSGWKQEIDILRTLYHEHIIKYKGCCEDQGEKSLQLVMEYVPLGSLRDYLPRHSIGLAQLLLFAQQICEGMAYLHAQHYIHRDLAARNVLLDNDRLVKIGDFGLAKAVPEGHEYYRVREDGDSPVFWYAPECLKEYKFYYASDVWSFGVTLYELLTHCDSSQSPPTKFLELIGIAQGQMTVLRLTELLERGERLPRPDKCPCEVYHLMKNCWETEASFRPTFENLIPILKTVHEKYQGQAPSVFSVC
value.kind: log10 IC50 (log10 of the value in µM)

molecule: N#CC1CN(C[C@H]2CC[C@H](c3nnn4cnc5[nH]ccc5c34)CC2)C1
log10 IC50: -0.32
//
molecule: N#Cc1ccc(CN2CCC(c3nnn4cnc5[nH]ccc5c34)CC2)cc1F
log10 IC50: -0.11
//
molecule: CC(C)NC[C@H]1CC[C@H](c2nnn3cnc4[nH]ccc4c23)CC1
log10 IC50: -0.38
//
molecule: S=c1[nH]c(C2CCCCC2)c2c3cc[nH]c3ncn12
log10 IC50: -1.44
//
molecule: OC1CN(C[C@H]2CC[C@@H](c3nnn4cnc5[nH]ccc5c34)CC2)C1
log10 IC50: -0.09
//
molecule: N#CC[C@H]1CC[C@@H](c2nnn3cnc4[nH]ccc4c23)CC1 [435a]
log10 IC50: -0.77

* * *

target: JAK3 (Homo sapiens (Human), UniProt P52333); assay: Enzyme assay (Assay Example^a 1), JAK3; assay type: biochemical; conditions: ATP 100 μM
value.kind: IC50 (µM)

chemical.structure: OC12CC3CC(C1)CC(c1nnn4cnc5[nH]ccc5c14)(C3)C2
target.desc: JAK3 (Homo sapiens (Human), UniProt P52333)
value.kind: IC50
display.unit: µM
relation.qualifier: =
recorded.measurement: 0.22
//
chemical.structure: FC1(F)CN(C[C@H]2CC[C@H](c3nnn4cnc5[nH]ccc5c34)CC2)C1
target.desc: JAK3 (Homo sapiens (Human), UniProt P52333)
value.kind: IC50
display.unit: µM
relation.qualifier: =
recorded.measurement: 0.26
//
chemical.structure: O=C([C@H]1CC[C@H](c2nnn3cnc4[nH]ccc4c23)CC1)N1CC(O)C1
target.desc: JAK3 (Homo sapiens (Human), UniProt P52333)
value.kind: IC50
display.unit: µM
relation.qualifier: >
recorded.measurement: 1
//
chemical.structure: CN(C)C[C@H]1CC[C@H](c2nnn3cnc4[nH]ccc4c23)CC1
target.desc: JAK3 (Homo sapiens (Human), UniProt P52333)
value.kind: IC50
display.unit: µM
relation.qualifier: =
recorded.measurement: 0.73

* * *

biological target: JAK1 (Homo sapiens (Human)); test: Enzyme assay (Assay Example^a 1), JAK1; type: biochemical; conditions: ATP 100 μM
# maps each entry to its log10 IC50
value.kind: log10 IC50 (log10 of the value in µM)

compound: CN(C)[C@@H]1CCN(C[C@H]2CC[C@H](c3nnn4cnc5[nH]ccc5c34)CC2)C1 [compound 340]
log10 IC50: -1.68
//
compound: FC(F)(F)C1CCN(C[C@H]2CC[C@H](c3nnn4cnc5[nH]ccc5c34)CC2)CC1 [compound 258]
log10 IC50: -1.92
//
compound: OC(CN[C@H]1CC[C@H](c2nnn3cnc4[nH]ccc4c23)CC1)(c1cccnc1)C(F)(F)F (some centres unmarked) [385b]
log10 IC50: -2.72
//
compound: N#CCC[C@H]1CC[C@H](c2nnn3cnc4[nH]ccc4c23)CC1 [compound 441]
log10 IC50: -2.80
//
compound: O=C(CNC[C@H]1CC[C@H](c2nnn3cnc4[nH]ccc4c23)CC1)NCC(F)(F)F [compound 341]
log10 IC50: -2.00
//
compound: N#CC1CN(C[C@H]2CC[C@H](c3nnn4cnc5[nH]ccc5c34)CC2)C1 [compound 281]
log10 IC50: -2.11
//
compound: O=C1NOC[C@H]1NC[C@H]1CC[C@H](c2nnn3cnc4[nH]ccc4c23)CC1 [compound 288]
log10 IC50: -1.34
//
compound: N#CC[C@H]1CC[C@H](c2nnn3cnc4[nH]ccc4c23)CC1 [435b]
log10 IC50: -3.96

* * *

molecular target: JAK3 (Homo sapiens (Human)); assay: JAK3 enzyme assay (Assay Example^b 1); conditions: IC50 (μM) JAK3, Table^b 80; ATP 100 μM

compound: O=c1ccn(C2CCN(Cc3ccc([N+](=O)[O-])o3)CC2)c2c1cnc1[nH]ccc12 [compound 72]
IC50: > 1 µM

compound: O=c1ccn(C2CCN(Cc3ccc(Br)o3)CC2)c2c1cnc1[nH]ccc12 [compound 80]
IC50: 0.34 µM

compound: C[C@@H]1CCN(C(=O)c2ccccc2C(F)(F)F)C[C@@H]1n1ccc(=O)c2cnc3[nH]ccc3c21 (racemic) [compound 30]
IC50: > 1 µM

compound: C[C@@H]1CCN(C(=O)c2cccc(C(F)(F)F)c2)C[C@@H]1n1ccc(=O)c2cnc3[nH]ccc3c21 (racemic) [compound 31]
IC50: > 1 µM

* * *

biological target: Tyk2 (Homo sapiens (Human)); test: Enzyme assay (Assay Example^a 1), Tyk2; format: biochemical; settings: ATP 100 μM
Threshold check on IC50: strictly below 0.4 µM is Condition met; on or above 0.4 µM is Condition not met.

compound: Brc1ccc(CN2CCC(c3nnn4cnc5[nH]ccc5c34)CC2)s1 [compound 238]
assigned.label: Condition met

compound: O=C1COc2ccc(CN3CCC(c4nnn5cnc6[nH]ccc6c45)CC3)cc2N1 [compound 225]
assigned.label: Condition not met

compound: CC1CC1NC[C@H]1CC[C@H](c2nnn3cnc4[nH]ccc4c23)CC1 (stereo partly shown) [compound 291]
assigned.label: Condition met

compound: c1cc2c(ncn3nnc([C@H]4CC[C@@H](CNC5CC5)CC4)c23)[nH]1 [compound 406]
assigned.label: Condition not met

compound: FC1CN(C[C@H]2CC[C@H](c3nnn4cnc5[nH]ccc5c34)CC2)C1 [compound 338]
assigned.label: Condition not met

compound: O=C1COc2cc(NC[C@H]3CC[C@H](c4nnn5cnc6[nH]ccc6c45)CC3)ccc2N1 [compound 273]
assigned.label: Condition met

compound: N#C[C@@H]1CCN(C[C@H]2CC[C@H](c3nnn4cnc5[nH]ccc5c34)CC2)C1 [compound 301]
assigned.label: Condition not met

compound: FC(F)(F)C(N[C@H]1CC[C@H](c2nnn3cnc4[nH]ccc4c23)CC1)C(F)(F)F [400b]
assigned.label: Condition not met

compound: O=S(=O)(C[C@H]1CC[C@H](c2nnn3cnc4[nH]ccc4c23)CC1)c1ccc(F)cc1 [compound 365]
assigned.label: Condition met

compound: O=C(CNC[C@H]1CC[C@H](c2nnn3cnc4[nH]ccc4c23)CC1)NCC(F)(F)F [compound 341]
assigned.label: Condition met

compound: CC(C#N)=C1CCC(c2nnn3cnc4[nH]ccc4c23)CC1 (stereo not shown) [compound 437]
assigned.label: Condition not met

compound: Fc1ccc([C@@H]2C[C@H]2CN[C@H]2CC[C@H](c3nnn4cnc5[nH]ccc5c34)CC2)cc1 (relative stereo) [389b]
assigned.label: Condition not met

compound: c1cc2c(ncn3nnc([C@H]4CC[C@H](CNCC5CC5)CC4)c23)[nH]1 [compound 285]
assigned.label: Condition met

compound: N#CCNC(=O)C[C@H]1CC[C@@H](c2nnn3cnc4[nH]ccc4c23)CC1 [443a]
assigned.label: Condition not met

compound: FC(F)(F)CCNC[C@H]1CC[C@H](c2nnn3cnc4[nH]ccc4c23)CC1 [compound 256]
assigned.label: Condition met

compound: O=C(NCCc1ccc(Cl)cc1)[C@H]1CC[C@H](c2nnn3cnc4[nH]ccc4c23)CC1 [compound 352]
assigned.label: Condition not met

compound: N#Cc1ccc(NC[C@H]2CC[C@H](c3nnn4cnc5[nH]ccc5c34)CC2)cc1Cl [compound 247]
assigned.label: Condition not met

compound: CN(C)[C@H]1CC[C@H](c2nnn3cnc4[nH]ccc4c23)CC1 [397b]
assigned.label: Condition not met

compound: O=C1COc2ccc(NC[C@H]3CC[C@H](c4nnn5cnc6[nH]ccc6c45)CC3)cc2N1 [compound 274]
assigned.label: Condition met

compound: Cc1ccccc1-c1nnn2cnc3[nH]ccc3c12 [compound 5]
assigned.label: Condition met

compound: OCCNC[C@H]1CC[C@H](c2nnn3cnc4[nH]ccc4c23)CC1 [compound 272]
assigned.label: Condition met

compound: N#CCNC[C@H]1CC[C@H](c2nnn3cnc4[nH]ccc4c23)CC1 [compound 259]
assigned.label: Condition met

compound: O[C@H]1CC[C@H](NC[C@H]2CC[C@H](c3nnn4cnc5[nH]ccc5c34)CC2)CC1 [compound 305]
assigned.label: Condition not met

compound: CN(C)C[C@H]1CC[C@H](c2nnn3cnc4[nH]ccc4c23)CC1 [compound 296]
assigned.label: Condition met

compound: OCCN(C[C@H]1CC[C@H](c2nnn3cnc4[nH]ccc4c23)CC1)C1CCCCC1 [compound 306]
assigned.label: Condition not met

compound: N#CCOc1ccc(CN2CCC(c3nnn4cnc5[nH]ccc5c34)CC2)cc1 [compound 213]
assigned.label: Condition not met

compound: N#Cc1ccc(N2CCC(c3nnn4cnc5[nH]ccc5c34)CC2)cc1 [compound 376]
assigned.label: Condition not met

compound: FC(F)(Br)CNC[C@H]1CC[C@H](c2nnn3cnc4[nH]ccc4c23)CC1 [compound 269]
assigned.label: Condition met

compound: Clc1ccc(CN2CCC(c3nnn4cnc5[nH]ccc5c34)CC2)o1 [compound 228]
assigned.label: Condition met

compound: N#CC(C#N)C[C@H]1CC[C@H](c2nnn3cnc4[nH]ccc4c23)CC1 [compound 432]
assigned.label: Condition met

compound: CC1(NC[C@H]2CC[C@H](c3nnn4cnc5[nH]ccc5c34)CC2)CC1 [compound 295]
assigned.label: Condition met

compound: COc1ccc(C(O)(CN[C@H]2CC[C@H](c3nnn4cnc5[nH]ccc5c34)CC2)C(F)(F)F)cc1OC (stereo partly shown) [390b]
assigned.label: Condition met

compound: CN(C)C1CN(C[C@H]2CC[C@H](c3nnn4cnc5[nH]ccc5c34)CC2)C1 [compound 423]
assigned.label: Condition not met
